The following sequences are shown together with reported shrunken log2 fold change values.
System: Escherichia coli TOP10;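 further: peptides expressed intracellularly from a pBAD plasmid library in pooled LB shake-flask culture, induced with 0.3% L-arabinose, DNA abundance read by NGS, three biological replicates, DESeq2 with apeglm shrinkage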
Test: shrunken log2 fold change of peptide-encoding DNA abundance (4.5 h post-induction vs induction); higher = less antimicrobial activity (less host growth inhibition)
Conditions: time post-induction: 4.5 h; library: site-saturation at positions 5, 18, 19, 20

>  <item_sequence>
RRIRRRPPRLPRPRPRPFDKPRP

>  <shrunken log2 fold change>
0.0721

$$$$
>  <item_sequence>
RRIRLRPPRLPRPRPRPGWEPRP

>  <shrunken log2 fold change>
0.14

$$$$
>  <item_sequence>
RRIRKRPPRLPRPRPRPPRFPRP

>  <shrunken log2 fold change>
0.733

$$$$
>  <item_sequence>
RRIRSRPPRLPRPRPRPWTDPRP

>  <shrunken log2 fold change>
-0.12

$$$$
>  <item_sequence>
RRIRRRPPRLPRPRPRPWRWPRP

>  <shrunken log2 fold change>
0.14

$$$$
>  <item_sequence>
RRIRYRPPRLPRPRPRPLMIPRP

>  <shrunken log2 fold change>
-1.73

$$$$
>  <item_sequence>
RRIRLRPPRLPRPRPRPAKAPRP

>  <shrunken log2 fold change>
0.271

$$$$
>  <item_sequence>
RRIRTRPPRLPRPRPRPVGIPRP

>  <shrunken log2 fold change>
-0.0568

$$$$
>  <item_sequence>
RRIRYRPPRLPRPRPRPFSQPRP

>  <shrunken log2 fold change>
0.0654

$$$$
>  <item_sequence>
RRIRRRPPRLPRPRPRPHMGPRP

>  <shrunken log2 fold change>
-0.15

$$$$
>  <item_sequence>
RRIRPRPPRLPRPRPRPEYMPRP

>  <shrunken log2 fold change>
-0.193

$$$$
>  <item_sequence>
RRIRQRPPRLPRPRPRPDRVPRP

>  <shrunken log2 fold change>
0.00438

$$$$
>  <item_sequence>
RRIRHRPPRLPRPRPRPDKDPRP

>  <shrunken log2 fold change>
-0.44

$$$$
>  <item_sequence>
RRIRWRPPRLPRPRPRPYGHPRP

>  <shrunken log2 fold change>
-0.478

$$$$
>  <item_sequence>
RRIRFRPPRLPRPRPRPEARPRP

>  <shrunken log2 fold change>
-0.137

$$$$
>  <item_sequence>
RRIRLRPPRLPRPRPRPQLEPRP

>  <shrunken log2 fold change>
-0.0629

$$$$
>  <item_sequence>
RRIRLRPPRLPRPRPRPTTTPRP

>  <shrunken log2 fold change>
0.00266

$$$$
>  <item_sequence>
RRIRCRPPRLPRPRPRPGKPPRP

>  <shrunken log2 fold change>
0.506

$$$$
>  <item_sequence>
RRIRLRPPRLPRPRPRPQLPPRP

>  <shrunken log2 fold change>
0.178

$$$$
>  <item_sequence>
RRIRCRPPRLPRPRPRPQVKPRP

>  <shrunken log2 fold change>
0.0486

$$$$
>  <item_sequence>
RRIRMRPPRLPRPRPRPAFAPRP

>  <shrunken log2 fold change>
0.738

$$$$
>  <item_sequence>
RRIRHRPPRLPRPRPRPKCWPRP

>  <shrunken log2 fold change>
0.123

$$$$
>  <item_sequence>
RRIRTRPPRLPRPRPRPSCQPRP

>  <shrunken log2 fold change>
-0.21

$$$$
>  <item_sequence>
RRIRSRPPRLPRPRPRPNYYPRP

>  <shrunken log2 fold change>
-0.822

$$$$
>  <item_sequence>
RRIRARPPRLPRPRPRPKPEPRP

>  <shrunken log2 fold change>
0.223

$$$$
>  <item_sequence>
RRIRIRPPRLPRPRPRPRQFPRP

>  <shrunken log2 fold change>
-0.112

$$$$
>  <item_sequence>
RRIRPRPPRLPRPRPRPMALPRP

>  <shrunken log2 fold change>
-0.0509

$$$$
>  <item_sequence>
RRIRWRPPRLPRPRPRPHSCPRP

>  <shrunken log2 fold change>
-0.0379

$$$$
>  <item_sequence>
RRIRYRPPRLPRPRPRPLRSPRP

>  <shrunken log2 fold change>
0.538

$$$$
>  <item_sequence>
RRIRMRPPRLPRPRPRPLDEPRP

>  <shrunken log2 fold change>
0.0492

$$$$
>  <item_sequence>
RRIRERPPRLPRPRPRPCWFPRP

>  <shrunken log2 fold change>
-0.0254

$$$$
>  <item_sequence>
RRIRCRPPRLPRPRPRPWYRPRP

>  <shrunken log2 fold change>
-0.705

$$$$
>  <item_sequence>
RRIRQRPPRLPRPRPRPMGKPRP

>  <shrunken log2 fold change>
-0.167

$$$$
>  <item_sequence>
RRIRARPPRLPRPRPRPWGVPRP

>  <shrunken log2 fold change>
0.329

$$$$
>  <item_sequence>
RRIRERPPRLPRPRPRPAECPRP

>  <shrunken log2 fold change>
-0.0953

$$$$
>  <item_sequence>
RRIRNRPPRLPRPRPRPFDEPRP

>  <shrunken log2 fold change>
-0.305

$$$$
>  <item_sequence>
RRIRCRPPRLPRPRPRPRITPRP

>  <shrunken log2 fold change>
-0.212

$$$$
>  <item_sequence>
RRIRGRPPRLPRPRPRPHWYPRP

>  <shrunken log2 fold change>
-0.0365

$$$$
>  <item_sequence>
RRIRIRPPRLPRPRPRPWPHPRP

>  <shrunken log2 fold change>
-0.394

$$$$
>  <item_sequence>
RRIRFRPPRLPRPRPRPQVTPRP

>  <shrunken log2 fold change>
-0.367

$$$$
>  <item_sequence>
RRIRIRPPRLPRPRPRPSWRPRP

>  <shrunken log2 fold change>
0.144

$$$$
>  <item_sequence>
RRIRRRPPRLPRPRPRPMWYPRP

>  <shrunken log2 fold change>
0.0371

$$$$
>  <item_sequence>
RRIRSRPPRLPRPRPRPNVAPRP

>  <shrunken log2 fold change>
-0.0788

$$$$
>  <item_sequence>
RRIRQRPPRLPRPRPRPRNIPRP

>  <shrunken log2 fold change>
-0.0833

$$$$
>  <item_sequence>
RRIRRRPPRLPRPRPRPCGNPRP

>  <shrunken log2 fold change>
0.0466

$$$$
>  <item_sequence>
RRIRMRPPRLPRPRPRPSILPRP

>  <shrunken log2 fold change>
0.0568

$$$$
>  <item_sequence>
RRIRSRPPRLPRPRPRPYERPRP

>  <shrunken log2 fold change>
-0.0323

$$$$
>  <item_sequence>
RRIRGRPPRLPRPRPRPCLEPRP

>  <shrunken log2 fold change>
0.546

$$$$
>  <item_sequence>
RRIRNRPPRLPRPRPRPIAQPRP

>  <shrunken log2 fold change>
-0.00164

$$$$
>  <item_sequence>
RRIRKRPPRLPRPRPRPSFLPRP

>  <shrunken log2 fold change>
0.104

$$$$
>  <item_sequence>
RRIRNRPPRLPRPRPRPGWRPRP

>  <shrunken log2 fold change>
0.564

$$$$
>  <item_sequence>
RRIRGRPPRLPRPRPRPHCHPRP

>  <shrunken log2 fold change>
0.284

$$$$
>  <item_sequence>
RRIRIRPPRLPRPRPRPAEGPRP

>  <shrunken log2 fold change>
-0.122

$$$$
>  <item_sequence>
RRIRDRPPRLPRPRPRPIDNPRP

>  <shrunken log2 fold change>
0.131

$$$$
>  <item_sequence>
RRIRRRPPRLPRPRPRPTINPRP

>  <shrunken log2 fold change>
-0.134

$$$$
>  <item_sequence>
RRIRHRPPRLPRPRPRPRKLPRP

>  <shrunken log2 fold change>
-0.141

$$$$
>  <item_sequence>
RRIRFRPPRLPRPRPRPEVDPRP

>  <shrunken log2 fold change>
0.084

$$$$
>  <item_sequence>
RRIRKRPPRLPRPRPRPLTYPRP

>  <shrunken log2 fold change>
0.0522

$$$$
>  <item_sequence>
RRIRHRPPRLPRPRPRPGNGPRP

>  <shrunken log2 fold change>
0.278

$$$$
>  <item_sequence>
RRIRIRPPRLPRPRPRPNVIPRP

>  <shrunken log2 fold change>
-0.82

$$$$
>  <item_sequence>
RRIRTRPPRLPRPRPRPIESPRP

>  <shrunken log2 fold change>
0.0133

$$$$
>  <item_sequence>
RRIRQRPPRLPRPRPRPREDPRP

>  <shrunken log2 fold change>
0.242

$$$$
>  <item_sequence>
RRIRMRPPRLPRPRPRPPGSPRP

>  <shrunken log2 fold change>
0.904

$$$$
